- Read-out: CD40, CD40 (gene 958)
- method-description: BSK_SAg_CD40: BioMAP Diversity Plus: SAg Assay for CD40 Biomarker Activity (AID 2283088)
- details: primary human HUVEC with PBMC; actives raise or lower the signal
Calls of active or inactive are those of the source. Rule for the calls: active = hit-call score of the fitted dose curve at least 0.9, where 1 is the maximum; inactive = score below 0.9.
measured-quantity: AC50

Recorded AC50, per entry:
Data request, read-out AC50, for CCCCCCOC(=O)c1ccccc1C(=O)OCCCCCC
32.9 µM (active)

Cool, now Nc1ccc(-c2ccc(N)cc2)cc1
inactive

Cool, now CCSC(=O)N(CC)C1CCCCC1
inactive

Cool, now O=C(O)C(F)(F)C(F)(F)C(F)(F)C(F)(F)C(F)(F)F
inactive

Cool, now CCOP(=S)(OCC)SCSC(C)(C)C
inactive

Below: the item to evaluate.
Data request, read-out AC50, for CC(c1ccc(O)cc1)(c1ccc(O)cc1)c1ccc(O)cc1
20.5 µM (active)

----------
- Read-out: Low-density lipoprotein receptor (LDLR), LDLR (gene 3949)
- method-description: BSK_CASM3C_LDLR: BioMAP Diversity Plus: CASM3C Assay for Low-density lipoprotein receptor (LDLR) Biomarker Activity (AID 2283045);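 note: LDLR protein level on the cell surface quantified by ELISA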
- details: primary human coronary artery smooth muscle cells; actives raise or lower the signal
The source made the active and inactive calls. Rule for the calls: active = hit-call score of the fitted dose curve at least 0.9, where 1 is the maximum; inactive = score below 0.9.
measured-quantity: outcome

Data request, read-out outcome, for Cc1cc(-c2ccc(N)c(C)c2)ccc1N
inactive

Cool, now CCOP(=S)(OCC)SCSC(C)(C)C
inactive

Cool, now N#Cc1ccc(N(CC(N)=O)CC(F)(F)F)cc1C(F)(F)F
inactive

----------
- Read-out: Alkaline Phosphatase, Placental (ALPP) gene, ALPP (gene 250)
- method-description: LTEA_HepaRG_ALPP: Life Technologies and Expression Analysis (LTEA) Assay for Alkaline Phosphatase, Placental (ALPP) gene using HepaRG (AID 2283468)
- details: mRNA level, 48 h; actives raise or lower the signal
Activity calls are given as the source filed them. Rule for the calls: active = hit-call score of the fitted dose curve at least 0.9, where 1 is the maximum; inactive = score below 0.9.
Select the matching outcome among active, inactive

Known results for compounds:
Which outcome was entered for the compound Clc1ccc(C(Cl)(Cl)Cl)cc1 in this test?
inactive

Cool, now Oc1ccc(C(c2ccc(O)cc2)(C(F)(F)F)C(F)(F)F)cc1
active

Cool, now c1cc2ccc3cccc4ccc(c1)c2c34
inactive

New cases:
Which outcome was entered for the compound O=C(N[C@H]1CN2CCC1CC2)c1cc2ccoc2cn1 in this test?
inactive

Cool, now CCCCCCCCOC(=O)c1ccccc1C(=O)OCCCCCCCC
inactive

----------
- method-description: BSK_hDFCGF_Proliferation: Cell Proliferation Assessment in the BioMAP Diversity Plus: hDFCGF Assay (AID 2283059);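 note: curves fitted for both rise and fall of signal versus DMSO baseline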
- details: primary human foreskin fibroblasts
Activity calls are given as the source filed them. The calls were made as follows: active = hit-call score of the fitted dose curve at least 0.9, where 1 is the maximum; inactive = score below 0.9.
Select the matching outcome among T = active, F = inactive

Known results for molecules:
Which outcome was entered for the molecule CCSC(=O)N(CC)C1CCCCC1 in this test?
F

Cool, now CCOC(=O)C(O)(c1ccc(Cl)cc1)c1ccc(Cl)cc1
T

New cases:
Which outcome was entered for the molecule CN(C)c1nc(=O)n(C2CCCCC2)c(=O)n1C in this test?
F

Cool, now CCC(C)(c1ccc(O)cc1)c1ccc(O)cc1
T

Cool, now CCC(=O)O[C@H]1CC[C@H]2[C@@H]3CCC4=CC(=O)CC[C@]4(C)[C@H]3CC[C@]12C
T

Cool, now C=CC(N)=O
F

Cool, now Cc1cccc(C)c1N
F

Cool, now CC(C)(c1ccccc1)c1ccc(O)cc1
T

Cool, now Clc1ccc(C(Cl)(Cl)Cl)cc1
F

Cool, now Cc1ccc(O)c(C)c1
T

Cool, now Clc1ccc(C(c2ccccc2Cl)C(Cl)(Cl)Cl)cc1 (stereo unspecified)
T

Cool, now O=C(O)C(F)(F)C(F)(F)C(F)(F)C(F)(F)C(F)(F)F
F

Cool, now c1cc2ccc3cccc4ccc(c1)c2c34
T

Cool, now C[C@]12CCC(=O)C=C1CC[C@@H]1[C@@H]2CC[C@]2(C)C(=O)CC[C@@H]12
T

Cool, now COS(=O)(=O)OC
F

Cool, now CC(c1ccc(O)cc1)(c1ccc(O)cc1)c1ccc(O)cc1
T
